Test system: A549-ACE2 infected with SARS-CoV-2
EXPERIMENTAL_PROTOCOL: SARS-CoV-2 infection rate relative to DMSO; higher = more infection
CONDITION_DETAILS: 0.1 µM; 24 h
TEST_READOUT: SARS-CoV-2 infection rate (%)
Answers are plain numbers, in %.

See these solved cases before continuing.
| SMILES_STRUCTURE | SARS-CoV-2 infection rate [%] |
| --- | --- |
| CCN1CCN(Cc2ccc(C(=O)Nc3ccc(C)c(Oc4ccc5c(c4)CC(=O)N5)c3)cc2C(F)(F)F)CC1 | 98 |
| O=C1/C(=C/c2ccccc2)C[C@@]2(O)[C@H]3Cc4ccc(O)c5c4[C@@]2(CCN3CC2CC2)[C@H]1O5 | 94 |
| CN1C(=O)/C(=C2/C(=O)Nc3ccccc32)c2ccccc21 | 103 |

Prompt: Quick one: SARS-CoV-2 infection rate of O=C(NCc1ccccc1)c1csc(Nc2ccncn2)n1 ?
Response: 98
